Target: T1, Boi2, P39969
T1 sequence (P39969 32-116, looked up): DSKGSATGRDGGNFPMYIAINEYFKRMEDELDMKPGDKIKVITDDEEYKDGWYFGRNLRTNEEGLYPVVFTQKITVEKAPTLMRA
Test: SPOT array
Details: median of control spots 1161
PARAMETER_MEASURED: SPOT intensity

BINDER: RLSRLLLSLPPESFT
PARAMETER_MEASURED: SPOT intensity
ASSAY_RESULT: 2

BINDER: KNPRRQLQIPRQQPS
PARAMETER_MEASURED: SPOT intensity
ASSAY_RESULT: 0

BINDER: VNFRRIPTGPDSPPT
PARAMETER_MEASURED: SPOT intensity
ASSAY_RESULT: 0

BINDER: SRQAIPPPVPNRPGG
PARAMETER_MEASURED: SPOT intensity
ASSAY_RESULT: 0

BINDER: SLSRRRFSLPSMPNV
PARAMETER_MEASURED: SPOT intensity
ASSAY_RESULT: 1

[P] KIRRSSLMIPNPQQF
[Q] RKNRAPPQRPRFNRD
INPUT: Hi! Which is lower in terms of SPOT intensity, the first one P or the second one Q ? Respond using the label that marks the chosen record.
OUTPUT: P
(P: 1, Q: 7)
